// provenance: patent EP0973746B1

biological target: His-tagged cytoplasmic domain of EGFR (Homo sapiens); construct: containing the EGFR cDNA encoding amino acids 645 - 1186 preceded by Met-Ala-(His)6; made in house; host or cells: Sf9 cells, recombinant baculovirus vHcEGFR52; test: Inhibition of Epidermal Growth Factor Receptor Kinase (EGF-R) using recombinant enzyme; type: biochemical; conditions: recombinant enzyme; RR-SRC peptide; average of the number of tests; read-out: IC50;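 further: radiometric kinase assay measuring radiolabeled phosphate transfer from ATP onto the peptide tyrosine by scintillation counting, control is reaction without compound, background subtracted, IC50 from dose-response curve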
Sequence (P00533 669-1210): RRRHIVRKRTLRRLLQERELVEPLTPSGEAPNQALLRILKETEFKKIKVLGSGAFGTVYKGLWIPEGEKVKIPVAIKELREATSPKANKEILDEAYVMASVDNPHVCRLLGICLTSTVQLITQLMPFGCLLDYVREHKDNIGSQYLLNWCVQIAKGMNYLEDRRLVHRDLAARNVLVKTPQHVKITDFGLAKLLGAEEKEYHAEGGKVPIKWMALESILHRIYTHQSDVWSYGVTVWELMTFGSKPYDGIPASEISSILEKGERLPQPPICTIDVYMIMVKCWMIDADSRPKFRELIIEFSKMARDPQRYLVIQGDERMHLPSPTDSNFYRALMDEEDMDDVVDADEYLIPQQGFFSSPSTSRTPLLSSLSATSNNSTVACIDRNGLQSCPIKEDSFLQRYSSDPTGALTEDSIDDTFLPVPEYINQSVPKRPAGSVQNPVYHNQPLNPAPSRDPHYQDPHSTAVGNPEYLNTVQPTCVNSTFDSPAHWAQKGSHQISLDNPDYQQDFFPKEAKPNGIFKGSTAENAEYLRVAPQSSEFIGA
pIC50: −log10 of the molar value. Counter-ions that a name gives are not always drawn.
Would you mind labelling by pIC50? At or over 8 is met, under is not met.

Please review the following examples before continuing.
COMPOUND: CCN1CCN(CC#CC(=O)Nc2ccc3ncc(C#N)c(Nc4cccc(Br)c4)c3c2)CC1 [Example 188]
ASSAY SYSTEM: His-tagged cytoplasmic domain of EGFR (Homo sapiens)
ASSIGNED LABEL: met
//
COMPOUND: CCOc1cc2ncc(C#N)c(Nc3ccc(F)c(Cl)c3)c2cc1OCC [Example 256]
ASSAY SYSTEM: His-tagged cytoplasmic domain of EGFR (Homo sapiens)
ASSIGNED LABEL: not met
//
COMPOUND: N#Cc1cnc2ccc(NC(=O)/C=C/Cl)cc2c1Nc1cccc(Br)c1 [Example 326]
ASSAY SYSTEM: His-tagged cytoplasmic domain of EGFR (Homo sapiens)
ASSIGNED LABEL: met
//
COMPOUND: CCN(CC)CC=CC(=O)Nc1cc2c(Nc3ccc(F)c(Br)c3)c(C#N)cnc2cc1OC [Example 209]
ASSAY SYSTEM: His-tagged cytoplasmic domain of EGFR (Homo sapiens)
ASSIGNED LABEL: met

Input line: Could you please find out whether CN(C)c1ccc2ncc(C#N)c(Nc3cccc(Br)c3)c2c1 [Example 395, Hydrochloride] has pIC50 that meets 8 or exceeds it?
Output line: not met

Input line: Could you please find out whether N#Cc1cnc2ccc([N+](=O)[O-])cc2c1Nc1ccc(F)c(F)c1 [Example 156] has pIC50 that meets 8 or exceeds it?
Output line: not met

Input line: Could you please find out whether N#Cc1cccc(Nc2c(C#N)cnc3ccc(NC(=O)C#CCN4CCCCC4)cc23)c1 [Example 161] has pIC50 that meets 8 or exceeds it?
Output line: met

Input line: Could you please find out whether N#Cc1cnc2ccc(NC(=O)C#CCN3CCOCC3)cc2c1Nc1cccc(Br)c1 [Example 328] has pIC50 that meets 8 or exceeds it?
Output line: met

* * *

This listing pairs molecules with measured IC50.
system: HTB161; experiment: Inhibition of cancer cell growth as measured by cell number, HTB161; format: cell-based; settings: Homo sapiens, 48 h, read-out: IC50 HTB161
Lab book: enter the figure in µg/mL, no units written.

// below: answered molecules
MOLECULE: N#Cc1cnc2ccc(N)cc2c1Nc1cccc(Br)c1 [Example 14]
ASSAY SYSTEM: HTB161
MEASURE NAME: IC50
VALUE UNITS: µg/mL
QUANTITATIVE RESULT: 1.79

MOLECULE: C=CC(=O)Nc1cc2c(Nc3cccc(Br)c3)c(C#N)cnc2cc1OC [Example 9]
ASSAY SYSTEM: HTB161
MEASURE NAME: IC50
VALUE UNITS: µg/mL
QUANTITATIVE RESULT: 0.341

MOLECULE: COc1cc2ncc(C#N)c(Oc3cccc(Br)c3)c2cc1OC [Example 49]
ASSAY SYSTEM: HTB161
MEASURE NAME: IC50
VALUE UNITS: µg/mL
QUANTITATIVE RESULT: 70.6

Next:
Input line: Answer with the recorded IC50 of COc1cc2ncc(C#N)c(Nc3cccc(Br)c3)c2cc1[N+](=O)[O-] [Example 6] only.
Output line: 1.66

* * *

test system: CX1; experiment: Inhibition of cancer cell growth as measured by cell number, CX1; assay type: cell-based; details: Homo sapiens, CX-1; cell number, Sulforhodamine B, 48 hours exposure; Table 4; read-out: IC50 CX1
This listing pairs molecules with measured IC50.
Lab book: enter the figure in µg/mL, no units written.

// below: answered molecules
MOLECULE: COc1cc2ncc(C#N)c(Sc3ccc(Br)cc3)c2cc1OC [Example 50]
ASSAY SYSTEM: CX1
QUANTITATIVE RESULT: 8.72

MOLECULE: CC#CC(=O)Nc1ccc2ncc(C#N)c(Nc3ccc(Br)c(Br)c3)c2c1 [Example 22]
ASSAY SYSTEM: CX1
QUANTITATIVE RESULT: 0.775

Input line: Retrieve IC50 on CX1; query CCCC(=O)Nc1ccc2ncc(C#N)c(Nc3cccc(Br)c3)c2c1 [Example 17]
Output line: 81.9

Input line: Retrieve IC50 on CX1; query CC(=O)Nc1ccc2ncc(C#N)c(Nc3cccc(Br)c3)c2c1 [Example 16]
Output line: 0.978

Input line: Retrieve IC50 on CX1; query COc1cc2ncc(C#N)c(NC3CCCCC3)c2cc1OC [Example 38]
Output line: 5.62

Input line: Retrieve IC50 on CX1; query COc1cc2ncc(C#N)c(Nc3cccc(Br)c3)c2cc1OC [Example 31]
Output line: 0.97

* * *

system: A549; test: Inhibition of cancer cell growth as measured by cell number, A549; type: cell-based; conditions: Homo sapiens, A549; cell number, Sulforhodamine B, 48 hours exposure; Table 6; read-out: IC50 A549
Label True when IC50 is strictly below 2 µg/mL; otherwise label False.

Please review the following examples before continuing.
ITEM SMILES: CC(=O)Nc1ccc2ncc(C#N)c(Nc3cccc(Br)c3)c2c1
ASSIGNED LABEL: True
--
ITEM SMILES: COc1cc2ncc(C#N)c(Sc3ccc(Br)cc3)c2cc1OC
ASSIGNED LABEL: False
--
ITEM SMILES: CCCC(=O)Nc1ccc2ncc(C#N)c(Nc3cccc(Br)c3)c2c1
ASSIGNED LABEL: False
--
ITEM SMILES: COc1cc2ncc(C#N)c(NC3CCCCC3)c2cc1OC
ASSIGNED LABEL: False

Input line: Field: below-cutoff. Rule: recorded IC50 strictly less than 2 µg/mL. Subject: `COc1cc2ncc(C#N)c(Nc3cccc(Br)c3)c2cc1OC`
Output line: False

Input line: Field: below-cutoff. Rule: recorded IC50 strictly less than 2 µg/mL. Subject: `CC#CC(=O)Nc1ccc2ncc(C#N)c(Nc3ccc(Br)c(Br)c3)c2c1`
Output line: True

* * *

tested on: CCL228; test: Inhibition of cancer cell growth as measured by cell number, CCL228; type: cell-based; conditions: Homo sapiens, 48 h, read-out: IC50 CCL228
MEASURE NAME: IC50 (µg/mL)
Lab book: enter the figure in µg/mL, no units written.

ITEM SMILES: COc1cc2ncc(C#N)c(Nc3cccc(Br)c3)c2cc1[N+](=O)[O-]
ASSAY SYSTEM: CCL228
QUANTITATIVE RESULT: 2.35
//
ITEM SMILES: CC#CC(=O)Nc1cc2c(Nc3cccc(Br)c3)c(C#N)cnc2cc1OC
ASSAY SYSTEM: CCL228
QUANTITATIVE RESULT: 8.67

Next:
Input line: Answer with the recorded IC50 of `COc1cc2ncc(C#N)c(Nc3ccc(F)cc3)c2cc1OC` only.
Output line: 54

* * *

molecular target: recombinant human MEK 1 (MAPKK) and recombinant human ERK2 (MAPK); experiment: Mitogen Activated Protein Kinase (MAPK) assay, two component coupled MEK 1 / ERK2; settings: separate entries for the same compound = evaluated more than one time;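 further: MEK 1-activated ERK2 phosphorylates MBP or Myc peptide with 33P-ATP, filter capture and scintillation counting, inhibitor preincubated with ERK2 30 min at 0 °C, inhibition relative to uninhibited control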
This listing pairs compounds with measured IC50.
Lab book: enter the figure in µM, no units written.

// below: answered compounds
ITEM SMILES: CC#CC(=O)Nc1ccc2ncc(C#N)c(Nc3ccc(Sc4ccccc4)c(Cl)c3)c2c1
MEASURE NAME: IC50
VALUE UNITS: µM
QUANTITATIVE RESULT: 90

ITEM SMILES: N#Cc1cnc2ccc(N)cc2c1Nc1ccc(Br)c(Br)c1
MEASURE NAME: IC50
VALUE UNITS: µM
QUANTITATIVE RESULT: 40

ITEM SMILES: COCC=CC(=O)Nc1ccc2ncc(C#N)c(Nc3cccc(Br)c3)c2c1
MEASURE NAME: IC50
VALUE UNITS: µM
QUANTITATIVE RESULT: 40

Next:
Input line: Answer with the recorded IC50 of `COc1cc2ncc(C#N)c(Nc3ccccc3SC)c2cc1OC` only.
Output line: 10

* * *

system: MCF7; assay: Inhibition of cancer cell growth as measured by cell number, MCF7; assay type: cell-based, human; conditions: Homo sapiens, MCF7, 48 h, read-out: IC50 MCF7, cell number, Sulforhodamine B, 48 hours exposure; Table 8;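 further: MCF7 was included as a line with little or no EGFR or HER2/neu expression, in contrast to the receptor-overexpressing lines of the panel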
This listing pairs molecules with measured IC50.
Lab book: enter the figure in µg/mL, no units written.

ITEM SMILES: COc1cc2ncc(C#N)c(Nc3cccc(Cl)c3)c2cc1OC
IC50 [µg/mL]: 6.86

Input line: Retrieve IC50 on MCF7; query `COCC=CC(=O)Nc1ccc2ncc(C#N)c(Nc3cccc(Br)c3)c2c1`
Output line: 84

Input line: Retrieve IC50 on MCF7; query `COc1cc2ncc(C#N)c(Nc3ccc(Sc4ccccc4)c(Cl)c3)c2cc1OC`
Output line: 2.85

Input line: Retrieve IC50 on MCF7; query `CCOc1cc2ncc(C#N)c(N(C)c3ccccc3)c2cc1OCC`
Output line: 7.87

Input line: Retrieve IC50 on MCF7; query `CCOc1cc2ncc(C#N)c(Nc3ccc(F)cc3)c2cc1OCC`
Output line: 9.98

Input line: Retrieve IC50 on MCF7; query `C=CC(=O)Nc1ccc2ncc(C#N)c(Nc3ccc(Br)cc3)c2c1`
Output line: 0.61

Input line: Retrieve IC50 on MCF7; query `N#Cc1cnc2ccc(N)cc2c1Nc1ccc(F)c(F)c1`
Output line: 7.49

Input line: Retrieve IC50 on MCF7; query `C=C(CC(=O)Nc1ccc2ncc(C#N)c(Nc3cccc(Br)c3)c2c1)C(=O)O`
Output line: 42.5

Input line: Retrieve IC50 on MCF7; query `N#Cc1cccc(Nc2c(C#N)cnc3ccc([N+](=O)[O-])cc23)c1`
Output line: 17.4

Input line: Retrieve IC50 on MCF7; query `CCOc1cc2ncc(C#N)c(Nc3cccc(Br)c3)c2cc1OCC`
Output line: 0.02

Input line: Retrieve IC50 on MCF7; query `Cc1cc([N+](=O)[O-])cc2c(Nc3cccc(Br)c3)c(C#N)cnc12`
Output line: 2.09

Input line: Retrieve IC50 on MCF7; query `CCN1CCN(CC#CC(=O)Nc2ccc3ncc(C#N)c(Nc4cccc(Br)c4)c3c2)CC1`
Output line: 1.43

Input line: Retrieve IC50 on MCF7; query `C#Cc1cccc(Nc2c(C#N)cnc3ccc(N)cc23)c1`
Output line: 8.5

Input line: Retrieve IC50 on MCF7; query `C#Cc1cccc(Nc2c(C#N)cnc3ccc([N+](=O)[O-])cc23)c1`
Output line: 5.94
